B1: TPR 5TU (parent)
chain: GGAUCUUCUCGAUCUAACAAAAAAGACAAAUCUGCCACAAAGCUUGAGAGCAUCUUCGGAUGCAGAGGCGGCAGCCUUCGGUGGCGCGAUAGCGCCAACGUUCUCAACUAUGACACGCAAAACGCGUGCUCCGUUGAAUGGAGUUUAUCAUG

Variants of: B1
Experiment: polymerase ribozyme fitness, log enrichment relative to wild type (log ratio); higher = more active; in vitro selection for triplet polymerase activity
Fewer inactive variants are shown than the library holds.

{"columns": ["mutationSpec", "comparator", "polymerase ribozyme fitness (log ratio)"],
 "data": [
  ["U15G G46U G65A G68C C85U C116G", "≤", -4.2],
  ["G92U A97C", "=", -0.00996],
  ["C27A A37U G42C A106C C116G A121G G128A U145G", "≤", -4.2],
  ["G59U C96U", "=", -0.292],
  ["U56A G59A C96U", "=", 0.392],
  ["A19G A47C C57A C96U U101G C123U U145A", "=", -0.877],
  ["U77G C93U G100U", "≤", -4.2],
  ["A3U U53A G84U A138G G152A", "≤", -4.2],
  ["A52G A60U C85A G94U C96G", "=", -3.93],
  ["U13C C69A C87G A97U A147U", "≤", -4.2],
  ["A26U G92C", "=", -3.52],
  ["U55A U56C G58A G92C A119U U145G", "=", -2.87],
  ["A21C U134A", "=", -1.79],
  ["G25C A52C G58C G62U U78G U82C C93A C125G", "≤", -4.2],
  ["U53A U109G", "=", -0.777],
  ["U55A G86A C149U A150U", "=", -1.65],
  ["C79A G83U U134G", "≤", -4.2],
  ["C116U U148A", "=", -3.85],
  ["A12U G81C G84A A115U", "≤", -4.2],
  ["C57A G70U G80A G83C C87U C108A", "≤", -4.2],
  ["A19C C27U A29C A52C G86C A137G G143U", "≤", -4.2],
  ["G58A A66G C93U C99U", "≤", -4.2]
]}
